# MEASURED_ON: Heat shock protein HSP 90-alpha (Homo sapiens)
# Format: functional, organism-based
Calls of active or inactive are those of the source.
// values below are reported AC50

Use these answered entries as a reference point.
CCN1C/C(=C/c2cccc([N+](=O)[O-])c2)C(=O)/C(=C/c2cccc([N+](=O)[O-])c2)C1
4.21 µM (active)
CC1(C)C=Cc2c(ccc3c2OC[C@H](c2ccc(O)cc2O)C3)O1
7.45 µM (active)

Which measured AC50 value corresponds to O=C1OCC(CO)(CO)N=C1NNc1ccc(Cl)c(Cl)c1 ?
2.31 µM (active)

Which measured AC50 value corresponds to CCCC1COC(Cn2cncn2)(c2ccc(Cl)cc2Cl)O1 (stereo unspecified) ?
< 0.195 µM (active)

Which measured AC50 value corresponds to Cc1ccc(S(=O)(=O)NCC23C=CC(O2)C2C(=O)N(c4ccccc4)C(=O)C23)cc1 (stereo unspecified) ?
17.7 µM (active)

Which measured AC50 value corresponds to CCOC(=O)c1ccc(N2C(=O)CC(N3CCC(Nc4ccc(F)cc4)CC3)C2=O)cc1 (stereo unspecified) ?
3.01 µM (active)

Which measured AC50 value corresponds to CCn1c(CNc2ccc(Cl)cc2)nnc1SCc1ccccc1 ?
1.57 µM (active)

Which measured AC50 value corresponds to Cc1ccc(Nc2nc(N)c([N+](=O)[O-])c(N3CCCC(C)C3)n2)cc1C (stereo unspecified) ?
8.91 µM (active)

Which measured AC50 value corresponds to O=C1C(F)=CC(COC(c2ccccc2)(c2ccccc2)c2ccccc2)OC1n1cc(F)c(=O)[nH]c1=O (stereo unspecified) ?
2.6 µM (active)

Which measured AC50 value corresponds to CC1=CN2C(=N)/C(=C/c3ccc([N+](=O)[O-])o3)C(=O)N=C2S1 ?
2.57 µM (active)

Which measured AC50 value corresponds to Cc1ccc(/C=C/C(=O)c2ccccc(=O)c2O)cc1C ?
4.22 µM (active)

###

# EXPERIMENT: HEp-2 cell cytotoxicity, dose response, cytotoxicity control for RSV inhibitor project, HTS (AID 2410)
# Type: functional
# MEASUREMENT_CONDITIONS: human respiratory syncytial virus
Activity calls are given as the source filed them.
PROPERTY_LABEL: CC50

Use these answered entries as a reference point.
N#Cc1nc(COc2ccccc2Cl)oc1N1CCCC1
41.5 µM (active)
Cc1ccc2sc(O)nc2c1
19.7 µM (active)
COc1ccccc1NC(=O)COc1ccc(Br)cc1CO
> 50 µM (active)

Which measured CC50 value corresponds to Cc1nn(Cc2c(Cl)cccc2Cl)c(C)c1NC(=O)c1cc(C(C)C)on1 ?
16.8 µM (active)

Which measured CC50 value corresponds to O=C(Nc1ccc(-c2csc(Nc3cccc(C(F)(F)F)c3)n2)cc1)c1ccccc1 ?
17.2 µM (active)

Which measured CC50 value corresponds to CCOc1ccc(NC2c3ccccc3C(=O)N2Cc2ccc3c(c2)OCO3)cc1 (stereo unspecified) ?
14.6 µM (active)

###

# MEASURED_ON: Cytochrome P450 2C19 (Homo sapiens, UniProt P33261)
# Sequence (P33261 whole entry): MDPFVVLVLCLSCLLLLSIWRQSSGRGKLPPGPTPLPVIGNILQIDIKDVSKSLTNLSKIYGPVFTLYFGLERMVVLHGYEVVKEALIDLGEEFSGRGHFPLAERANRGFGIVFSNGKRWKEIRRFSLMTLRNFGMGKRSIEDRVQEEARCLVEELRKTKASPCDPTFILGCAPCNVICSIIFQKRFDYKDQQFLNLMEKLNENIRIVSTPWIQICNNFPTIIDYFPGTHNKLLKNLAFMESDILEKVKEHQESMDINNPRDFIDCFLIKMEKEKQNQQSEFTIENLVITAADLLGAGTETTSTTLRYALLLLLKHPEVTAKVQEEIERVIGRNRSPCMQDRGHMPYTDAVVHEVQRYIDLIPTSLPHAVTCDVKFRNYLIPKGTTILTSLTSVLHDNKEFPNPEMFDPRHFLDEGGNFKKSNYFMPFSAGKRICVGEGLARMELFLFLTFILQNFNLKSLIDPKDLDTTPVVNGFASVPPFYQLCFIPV
# EXPERIMENT: Cytochrome panel assay with activity outcomes. Panel member name: p450-cyp2c19 Compounds with AC50 equal or less than 10 uM are considered active
# Assay type: functional
# MEASUREMENT_CONDITIONS: read-out: AC50
PROPERTY_LABEL: AC50

Use these answered entries as a reference point.
COC(=O)N1CCC[C@@]2(CCN(c3ccccn3)C2)C1
39.8 µM (inconclusive)
Oc1ccccc1CNn1cnnc1
0.2 µM (inconclusive)
CN(C)c1ncc2nc(CCc3ccccc3)c(=O)n(-c3ccccc3)c2n1
39.8 µM (inconclusive)

Which measured AC50 value corresponds to COc1ccccc1Cn1c(=S)[nH]c2cc(C(=O)N3CCN(C)CC3)ccc2c1=O ?
39.8 µM (inconclusive)

###

# MEASURED_ON: Zinc finger protein mex-5 (Caenorhabditis elegans, UniProt Q9XUB2)
# Sequence (Q9XUB2 whole entry): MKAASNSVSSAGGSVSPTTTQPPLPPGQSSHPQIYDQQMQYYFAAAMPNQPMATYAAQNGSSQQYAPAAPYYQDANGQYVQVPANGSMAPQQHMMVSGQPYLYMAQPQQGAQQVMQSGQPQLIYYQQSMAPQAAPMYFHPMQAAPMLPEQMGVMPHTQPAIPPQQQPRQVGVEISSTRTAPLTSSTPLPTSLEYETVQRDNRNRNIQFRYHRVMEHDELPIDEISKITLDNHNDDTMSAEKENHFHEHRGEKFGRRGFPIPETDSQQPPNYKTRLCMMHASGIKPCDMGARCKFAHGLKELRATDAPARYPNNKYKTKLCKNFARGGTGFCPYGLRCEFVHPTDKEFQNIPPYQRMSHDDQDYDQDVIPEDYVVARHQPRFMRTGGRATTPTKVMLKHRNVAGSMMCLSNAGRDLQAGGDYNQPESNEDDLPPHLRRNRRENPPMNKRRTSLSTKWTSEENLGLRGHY
# EXPERIMENT: MEX-5/TCR-2 RNA interaction inhibitors, dose response, biochemical, C. elegans, fluorescence polarization (AID 1960)
Active and inactive are the calls of the source.
PROPERTY_LABEL: EC50

Tell me reported EC50 for COC(=O)CCC(=O)OC1(C)C(=O)C=C2C=C(c3ccsc3)OC=C2C1=O (configuration not stated) , tested with Zinc finger protein mex-5 (Caenorhabditis elegans, UniProt Q9XUB2).
26.7 µM (inconclusive)

Tell me reported EC50 for O=C(/C=C/c1ccc(O)c(O)c1)OC(Cc1ccc(O)c(O)c1)C(=O)O (configuration not stated) , tested with Zinc finger protein mex-5 (Caenorhabditis elegans, UniProt Q9XUB2).
8.75 µM (active)

Tell me reported EC50 for OCCOc1ccc(C2=NCCO2)cc1 , tested with Zinc finger protein mex-5 (Caenorhabditis elegans, UniProt Q9XUB2).
> 300 µM (not active)

Tell me reported EC50 for CCCn1c(=N)c(C(=O)NCC2CCCO2)cc2c(=O)n3cccc(C)c3nc21 (configuration not stated) , tested with Zinc finger protein mex-5 (Caenorhabditis elegans, UniProt Q9XUB2).
> 300 µM (not active)

Tell me reported EC50 for O=C1C(Cl)=C(Nc2ccccc2O)C(=O)N1c1ccccc1 , tested with Zinc finger protein mex-5 (Caenorhabditis elegans, UniProt Q9XUB2).
73 µM (inconclusive)

Tell me reported EC50 for COC(=O)CCCC1=CC2=CC(=O)C(C)(OC(=O)c3cccs3)C(=O)C2=CO1 (configuration not stated) , tested with Zinc finger protein mex-5 (Caenorhabditis elegans, UniProt Q9XUB2).
16.5 µM (active)

Tell me reported EC50 for COc1ccc(/C=C2\CCCC(C(=O)C(F)(F)F)=C2O)cc1 , tested with Zinc finger protein mex-5 (Caenorhabditis elegans, UniProt Q9XUB2).
41.4 µM (active)

###

# MEASURED_ON: Polyadenylate-binding protein 1 (Homo sapiens, UniProt P11940)
# Sequence (P11940 whole entry): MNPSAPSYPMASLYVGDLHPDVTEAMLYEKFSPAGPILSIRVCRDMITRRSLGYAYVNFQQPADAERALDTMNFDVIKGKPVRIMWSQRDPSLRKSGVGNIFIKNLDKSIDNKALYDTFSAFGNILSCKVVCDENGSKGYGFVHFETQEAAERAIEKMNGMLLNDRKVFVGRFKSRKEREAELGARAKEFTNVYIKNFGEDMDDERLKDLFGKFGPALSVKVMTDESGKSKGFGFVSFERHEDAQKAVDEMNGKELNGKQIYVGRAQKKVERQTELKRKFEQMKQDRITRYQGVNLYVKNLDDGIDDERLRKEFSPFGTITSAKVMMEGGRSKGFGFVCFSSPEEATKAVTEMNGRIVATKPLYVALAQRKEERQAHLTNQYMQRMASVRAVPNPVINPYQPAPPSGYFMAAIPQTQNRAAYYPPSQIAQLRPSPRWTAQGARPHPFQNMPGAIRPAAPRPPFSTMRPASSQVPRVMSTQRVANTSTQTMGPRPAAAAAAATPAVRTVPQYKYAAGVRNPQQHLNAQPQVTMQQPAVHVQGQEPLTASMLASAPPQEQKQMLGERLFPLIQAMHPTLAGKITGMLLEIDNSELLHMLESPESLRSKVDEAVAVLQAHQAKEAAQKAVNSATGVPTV
# EXPERIMENT: PABP1 MLLE–PAM2 binding inhibitor potency, dose response, biochemical, fluorescence polarization, FITC-PAM2 peptide (AID 602259)
# Assay type: functional
# MEASUREMENT_CONDITIONS: read-out: IC50_Mean
Activity calls are given as the source filed them.
PROPERTY_LABEL: IC50

Which measured IC50 value corresponds to O=C(CCc1ccccc1)NC(=S)Nc1ccc(S(=O)(=O)N2CCOCC2)cc1 ?
> 66 µM (inactive)

Which measured IC50 value corresponds to CCCCc1cn([C@@H](CCCCN)C(=O)N2CCNCC2)nn1 ?
21 µM (inactive)

Which measured IC50 value corresponds to Oc1cc(CNC2CCCCC2)c(O)cc1CNC1CCCCC1 ?
47.7 µM (inactive)

Which measured IC50 value corresponds to NC(=S)N=Nc1c(O)[nH]c2ccc(F)cc12 ?
> 66 µM (inactive)

Which measured IC50 value corresponds to CCCS(=O)(=O)N1CCN=C1SCc1cccnc1 ?
> 66 µM (inactive)

###

Notes on AC50 obtained with Cytochrome P450 2D6 (Homo sapiens, UniProt P10635).
Sequence (P10635 whole entry): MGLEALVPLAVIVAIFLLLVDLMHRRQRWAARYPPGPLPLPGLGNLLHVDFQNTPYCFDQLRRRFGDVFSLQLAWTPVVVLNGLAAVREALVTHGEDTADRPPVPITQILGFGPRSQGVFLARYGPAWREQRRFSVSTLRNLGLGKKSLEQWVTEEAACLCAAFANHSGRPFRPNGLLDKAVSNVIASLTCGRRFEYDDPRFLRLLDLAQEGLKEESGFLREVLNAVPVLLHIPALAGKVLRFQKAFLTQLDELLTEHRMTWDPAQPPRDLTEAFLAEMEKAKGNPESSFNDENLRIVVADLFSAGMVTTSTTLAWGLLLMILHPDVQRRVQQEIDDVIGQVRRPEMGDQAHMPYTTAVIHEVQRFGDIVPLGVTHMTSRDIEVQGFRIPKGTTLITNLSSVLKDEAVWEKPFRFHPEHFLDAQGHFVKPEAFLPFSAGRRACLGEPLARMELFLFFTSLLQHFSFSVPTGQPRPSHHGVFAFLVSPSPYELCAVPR

Use these answered entries as a reference point.
Cc1nc2nc(SCC(=O)NCc3ccco3)nn2c(C)c1Cc1c(F)cccc1Cl
28.2 µM (inconclusive)
Cc1cnc(CNc2ncnc3ccc(-c4ccccc4C)cc23)cn1
20 µM (inconclusive)
COc1cccc(-c2ccc3ncnc(NC4CC4)c3c2)c1
25.1 µM (inconclusive)
Cc1ccc(NC(S)=Nc2nc(CC(=O)Nc3ccccc3)cs2)cc1
1.78 µM (inconclusive)
CC(=O)c1cccc(NC(=O)/C(=C\c2ccco2)NC(=O)c2cccs2)c1
14.1 µM (inconclusive)

Which measured AC50 value corresponds to COC(=O)/C(=C\C(=O)c1ccccc1)Nc1cccc(C(F)(F)F)c1 ?
25.1 µM (inconclusive)

Which measured AC50 value corresponds to CC(=O)N1CCC2(CCN(Cc3ccccc3)CC2)CC1 ?
15.8 µM (inconclusive)

###

# MEASURED_ON: Heat shock factor protein 1 (Mus musculus, UniProt P38532)
# Sequence (P38532 whole entry): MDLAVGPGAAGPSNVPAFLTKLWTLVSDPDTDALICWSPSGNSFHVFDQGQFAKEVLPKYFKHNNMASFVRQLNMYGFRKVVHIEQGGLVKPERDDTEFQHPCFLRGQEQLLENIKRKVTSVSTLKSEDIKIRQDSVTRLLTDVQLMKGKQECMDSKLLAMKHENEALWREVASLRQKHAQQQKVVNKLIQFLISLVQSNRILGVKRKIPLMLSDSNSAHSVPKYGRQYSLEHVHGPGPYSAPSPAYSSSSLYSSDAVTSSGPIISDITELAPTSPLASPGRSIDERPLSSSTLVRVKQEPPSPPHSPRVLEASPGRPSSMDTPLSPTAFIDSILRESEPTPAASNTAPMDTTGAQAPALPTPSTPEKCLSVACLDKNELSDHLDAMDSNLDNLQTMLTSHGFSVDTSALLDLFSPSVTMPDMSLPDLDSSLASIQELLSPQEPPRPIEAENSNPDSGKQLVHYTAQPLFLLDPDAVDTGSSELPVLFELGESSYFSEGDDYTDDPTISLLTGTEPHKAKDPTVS
# EXPERIMENT: inhibition of MG132-induced HSE-luciferase signal, confirmation, cell-based, NIH3T3, luminescence, dose retest (AID 2382);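 also: NIH3T3 fibroblasts with HSF1-driven luciferase reporter stressed by proteasome inhibitor MG132; luminescence from HSF1-driven luciferase expression after 8 hours of MG132 stress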
# Format: functional
The source made the active and inactive calls.
// values below are reported EC50

O=C(O)CCN1Cc2ccccc2C1=O
> 195 µM (not active)
COc1ccc(CCNC(=O)c2nnn(-c3ccc4c(c3)OCCO4)c2N)cc1OC
0.44 µM (active)

Next:
Which measured EC50 value corresponds to Cc1ccc(S(=O)(=O)c2c(C(=O)c3ccccc3)cnc3cc4c(cc23)OCCO4)cc1 ?
> 195 µM (not active)
